Where these numbers come from: ChEMBL document CHEMBL1961873

Biological target: NT-3 growth factor receptor (Homo sapiens);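 further: mean percent inhibition of TRKC, reported within the GSK PKIS dataset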
Details: at 0.1 µM
Readout name: inhibition (%)

# Chemical structure, Target of assay, Experimental value
data = [
    ("CNC(=O)c1ncccc1Nc1nc(Nc2cc3c(cc2OC)CCCN3C(=O)CN(C)C)nc2[nH]ccc12", "NT-3 growth factor receptor (Homo sapiens)", 2.2),
    ("Fc1cccc(COc2ccc(Nc3ncncc3C#Cc3ccccc3)cc2Cl)c1", "NT-3 growth factor receptor (Homo sapiens)", 2.81),
    ("CNC(=O)c1sc(-n2cnc3cc(OC)c(OC)cc32)cc1OCc1ccccc1C(F)(F)F", "NT-3 growth factor receptor (Homo sapiens)", 3.06),
    ("CCOc1ccc2c(-c3ccnc(Nc4cc(OC)cc(C(F)(F)F)c4)n3)cnn2n1", "NT-3 growth factor receptor (Homo sapiens)", -1.23),
    ("CS(=O)(=O)Nc1ccc(-c2cc(-c3ccccc3)cc(C(N)=O)c2N)cc1", "NT-3 growth factor receptor (Homo sapiens)", 1.09),
    ("N#Cc1ccc2c(-c3ccnc(NC4CC4)n3)c(-c3ccc(F)cc3)nn2c1", "NT-3 growth factor receptor (Homo sapiens)", -1.35),
    ("O=C(O[C@H]1CN[C@H](C#Cc2cc3ncnc(Nc4ccc5c(cnn5Cc5ccccc5)c4)c3s2)C1)N1CCOCC1", "NT-3 growth factor receptor (Homo sapiens)", -0.59),
    ("CCn1c(-c2nonc2N)nc2cncc(C(=O)NCCNC)c21", "NT-3 growth factor receptor (Homo sapiens)", 3.96),
    ("Cn1c(-c2nonc2N)nc2cnccc21", "NT-3 growth factor receptor (Homo sapiens)", 2),
    ("Cc1cc(O)cc(C)c1/C=C/c1cncc(C(=O)OC(C)(C)C)c1", "NT-3 growth factor receptor (Homo sapiens)", 2.87),
    ("O=C(Nc1n[nH]c2nnc(-c3cccnc3)cc12)C1CC1", "NT-3 growth factor receptor (Homo sapiens)", -0.44),
    ("CS(=O)(=O)Nc1ccc(-c2ccc3c(NC(=O)C4CC4)n[nH]c3c2)cc1", "NT-3 growth factor receptor (Homo sapiens)", 2.1),
    ("c1ccc(-c2n[nH]cc2-c2ccnc(-c3ccc(OCCn4ccnc4)cc3)c2)nc1", "NT-3 growth factor receptor (Homo sapiens)", 0.02),
    ("CCS(=O)(=O)c1ccc(OC)c(Nc2ncc(-c3cccc(C(C)=O)c3)o2)c1", "NT-3 growth factor receptor (Homo sapiens)", 4.38),
    ("Cc1c2ccc(N(C)c3ccnc(Nc4cccc(S(N)(=O)=O)c4)n3)cc2nn1C", "NT-3 growth factor receptor (Homo sapiens)", 4.05),
    ("CNC(=O)c1cncc(/C=C/c2ccccc2C)c1", "NT-3 growth factor receptor (Homo sapiens)", 3.82),
    ("FC(F)(F)CNc1nccc(-c2cnn3ncccc23)n1", "NT-3 growth factor receptor (Homo sapiens)", 0.73),
]

====

inhibition values, listed per item
Target: Rhodopsin kinase GRK7 (Homo sapiens);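 further: reported figures are mean percent inhibition of GRK7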
Details: at 0.1 µM

# Chemical structure, inhibition (%)
data = [
    ("CS(=O)(=O)Nc1ccc(-c2cc(-c3ccccc3)cc(C(N)=O)c2N)cc1", 7.08),
    ("COc1cc2c(cc1Nc1nc(Nc3cccc(F)c3C(N)=O)c3cc[nH]c3n1)N(C(=O)CN1CCN(C(C)C)CC1)CC2", 6.57),
    ("OCCCNc1nccc(-c2c(-c3ccc(F)cc3)nn3cc(C(F)(F)F)ccc23)n1", -0.28),
    ("CN(C)CCNC(=O)Nc1ccc(N(C)c2ccnc(Nc3ccc(CS(C)(=O)=O)cc3)n2)cc1", 3.11),
    ("NS(=O)(=O)c1cccc(N/C=C2\\C(=O)Nc3ccccc32)c1", 2.36),
]

====

Biological target: Protein kinase C eta type (Homo sapiens) (UniProt P24723);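 further: value is the mean inhibition, from GSK PKIS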
Sequence (P24723 whole entry): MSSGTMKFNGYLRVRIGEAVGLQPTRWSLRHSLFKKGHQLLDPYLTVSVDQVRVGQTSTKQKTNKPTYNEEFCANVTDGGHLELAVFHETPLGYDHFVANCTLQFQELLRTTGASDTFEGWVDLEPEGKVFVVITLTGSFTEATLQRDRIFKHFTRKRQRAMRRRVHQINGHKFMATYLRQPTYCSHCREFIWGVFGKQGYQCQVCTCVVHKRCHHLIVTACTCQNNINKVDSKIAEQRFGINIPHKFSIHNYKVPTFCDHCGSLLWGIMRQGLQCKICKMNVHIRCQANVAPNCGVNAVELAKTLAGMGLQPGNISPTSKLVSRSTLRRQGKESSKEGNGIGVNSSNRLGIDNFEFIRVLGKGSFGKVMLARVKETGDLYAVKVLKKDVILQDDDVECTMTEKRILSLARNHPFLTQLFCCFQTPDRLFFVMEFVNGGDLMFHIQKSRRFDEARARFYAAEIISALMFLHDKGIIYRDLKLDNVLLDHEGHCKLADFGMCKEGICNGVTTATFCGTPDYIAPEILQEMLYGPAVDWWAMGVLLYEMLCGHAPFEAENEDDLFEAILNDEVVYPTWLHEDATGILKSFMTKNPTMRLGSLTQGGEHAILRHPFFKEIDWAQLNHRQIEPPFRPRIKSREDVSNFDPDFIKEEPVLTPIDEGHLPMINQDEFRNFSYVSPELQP
Details: at 1 µM
In this section, each of the molecules is paired with its reported inhibition.

# Molecule, Target of assay, Units text, inhibition
records = [
    ("O=C1Nc2ccccc2/C1=C1\\CCc2cc(O)ccc21", "Protein kinase C eta type (Homo sapiens) (UniProt P24723)", "%", 3.7),
    ("NS(=O)(=O)c1cccc(N/C=C2\\C(=O)Nc3ccccc32)c1", "Protein kinase C eta type (Homo sapiens) (UniProt P24723)", "%", 3.72),
    ("CC(C)c1ccc(-c2cc(-c3c[nH]nc3-c3ccccn3)ccn2)cc1", "Protein kinase C eta type (Homo sapiens) (UniProt P24723)", "%", 0.07),
    ("CC1=C(C(=O)Nc2ccc3[nH]nc(C)c3c2)C(c2ccc(C(F)(F)F)cc2)CC(=O)N1 (stereo unspecified)", "Protein kinase C eta type (Homo sapiens) (UniProt P24723)", "%", 9.11),
    ("CN1CCC(n2cnc(-c3ccc(F)cc3)c2-c2ccnc(NCCO)n2)CC1", "Protein kinase C eta type (Homo sapiens) (UniProt P24723)", "%", 2.5),
    ("c1cnn2ncc(-c3ccnc(NCCCN4CCOCC4)n3)c2c1", "Protein kinase C eta type (Homo sapiens) (UniProt P24723)", "%", 2.05),
]

====

The following molecules are listed with their measured inhibition values.
Molecular target: Tyrosine-protein kinase Fyn (Homo sapiens) (UniProt P06241)
Sequence (P06241 2-537 limits assumed): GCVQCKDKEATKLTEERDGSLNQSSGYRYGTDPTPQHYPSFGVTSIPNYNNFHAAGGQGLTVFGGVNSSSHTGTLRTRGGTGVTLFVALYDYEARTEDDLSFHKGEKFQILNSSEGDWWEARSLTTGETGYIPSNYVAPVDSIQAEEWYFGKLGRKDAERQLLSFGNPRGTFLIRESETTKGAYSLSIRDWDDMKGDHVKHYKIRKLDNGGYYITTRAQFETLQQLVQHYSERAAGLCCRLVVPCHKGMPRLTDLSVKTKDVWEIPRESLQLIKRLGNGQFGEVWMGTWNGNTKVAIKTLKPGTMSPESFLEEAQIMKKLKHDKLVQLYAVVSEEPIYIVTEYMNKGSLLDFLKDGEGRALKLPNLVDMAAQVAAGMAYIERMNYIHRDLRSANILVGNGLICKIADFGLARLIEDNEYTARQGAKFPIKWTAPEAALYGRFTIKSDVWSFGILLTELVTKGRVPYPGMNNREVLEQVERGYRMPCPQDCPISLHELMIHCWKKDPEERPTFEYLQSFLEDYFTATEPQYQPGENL
Settings: at 1 µM
Description: GSK_PKIS: FYN mean inhibition at 1 uM [Nanosyn]

# Chemical structure, Units text, inhibition
data = [
    ("COc1cc(N2CCN(C(C)C)CC2)ccc1Nc1nc(Nc2cccc3ncccc23)c2cc[nH]c2n1", "%", 2.23),
    ("CCS(=O)(=O)c1ccc(OC)c(Nc2ncc(-c3cccc(F)c3)o2)c1", "%", 72.4),
    ("CN(c1ccc(NC(=O)NCCN2CCOCC2)cc1)c1ccnc(Nc2ccc(CS(C)(=O)=O)cc2)n1", "%", 1.63),
    ("Fc1ccc(Nc2nccc(-c3c(-c4ccc(C(F)(F)F)cc4)nn4ncccc34)n2)cc1F", "%", 2.19),
    ("NC(=O)c1ccc2c(-c3ccnc(NCCCO)n3)c(-c3ccc(F)cc3)nn2c1", "%", 5.23),
    ("OCCCNc1nccc(-c2c(-c3ccc(F)cc3)nn3cc(C(F)(F)F)ccc23)n1", "%", 4.88),
    ("O=C(O[C@H]1CN[C@H](C#Cc2cc3ncnc(Nc4ccc5c(ccn5Cc5cc(F)ccc5F)c4)c3s2)C1)N1CCOCC1", "%", 0.77),
    ("Fc1cccc(COc2ccc(Nc3ncncc3C#Cc3ccccc3)cc2Cl)c1", "%", 2.9),
    ("CC(C)c1ccc(-c2cc(-c3c[nH]nc3-c3ccccn3)ccn2)cc1", "%", 1.91),
    ("COc1cccc(Nc2nccc(-c3cnn4ncccc34)n2)c1", "%", 16.2),
    ("CS(=O)(=O)CCNCc1ccoc1-c1ccc2ncnc(Nc3ccc(OCc4ccccc4)cc3)c2c1", "%", 7.94),
]

====

Tested on: Mast/stem cell growth factor receptor Kit (Homo sapiens), P10721 [T670I]
Sequence (P10721 whole entry T670I): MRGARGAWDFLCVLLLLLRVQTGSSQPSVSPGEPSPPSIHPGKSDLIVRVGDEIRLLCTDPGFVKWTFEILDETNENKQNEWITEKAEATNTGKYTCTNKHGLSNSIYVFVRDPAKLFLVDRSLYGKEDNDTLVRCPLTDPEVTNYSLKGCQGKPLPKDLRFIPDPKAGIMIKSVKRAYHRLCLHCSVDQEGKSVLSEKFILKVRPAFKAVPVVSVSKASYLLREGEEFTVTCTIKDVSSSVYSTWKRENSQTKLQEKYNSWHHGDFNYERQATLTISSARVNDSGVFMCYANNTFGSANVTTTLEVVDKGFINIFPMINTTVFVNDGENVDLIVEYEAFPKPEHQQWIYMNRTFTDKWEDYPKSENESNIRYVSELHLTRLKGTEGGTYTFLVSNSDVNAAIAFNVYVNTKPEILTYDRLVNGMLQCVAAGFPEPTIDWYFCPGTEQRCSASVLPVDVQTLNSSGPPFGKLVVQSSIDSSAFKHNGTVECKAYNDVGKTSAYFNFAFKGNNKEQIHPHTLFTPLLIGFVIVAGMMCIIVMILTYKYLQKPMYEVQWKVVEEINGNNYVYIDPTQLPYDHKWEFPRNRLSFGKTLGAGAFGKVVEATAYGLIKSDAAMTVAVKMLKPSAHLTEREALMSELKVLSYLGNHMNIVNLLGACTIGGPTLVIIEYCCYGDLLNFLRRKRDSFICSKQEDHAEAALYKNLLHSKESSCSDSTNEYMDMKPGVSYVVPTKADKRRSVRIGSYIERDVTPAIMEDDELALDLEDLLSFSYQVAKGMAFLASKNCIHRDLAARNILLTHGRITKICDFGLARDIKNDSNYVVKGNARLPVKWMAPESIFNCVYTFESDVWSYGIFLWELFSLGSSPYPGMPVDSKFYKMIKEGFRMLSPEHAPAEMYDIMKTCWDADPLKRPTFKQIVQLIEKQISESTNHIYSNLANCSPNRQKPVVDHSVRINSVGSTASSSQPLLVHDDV
Conditions: at 1 µM

# Molecule, inhibition (%)
records = [
    ("Fc1ccc(Nc2nccc(-c3c(-c4ccc(C(F)(F)F)cc4)nn4ncccc34)n2)cc1F", 2.14),
    ("CS(=O)(=O)Nc1ccc(-c2ccc3c(NC(=O)C4CC4)n[nH]c3c2)cc1", 1.56),
    ("CN(c1ccc(NC(=O)NCCN2CCOCC2)cc1)c1ccnc(Nc2ccc(CS(C)(=O)=O)cc2)n1", 73.6),
    ("CNC(=O)c1cncc(/C=C/c2ccccc2C)c1", 4.48),
    ("CC1=C(C(=O)Nc2ccc3[nH]nc(C)c3c2)C(c2ccc(C(F)(F)F)cc2)CC(=O)N1 (stereo not drawn)", 1.75),
    ("CC(C)c1ccc(-c2cc(-c3c[nH]nc3-c3ccccn3)ccn2)cc1", 1.23),
    ("NS(=O)(=O)c1ccc(N/N=C2\\C(=O)Nc3ccc(C(=O)NCc4ccncc4)cc32)cc1", 4.42),
    ("COc1c(C(N)=O)cc(-c2ccc(Cl)cc2)cc1-c1ccc(S(N)(=O)=O)cc1", 2.82),
    ("CCN1CCC(C(=O)Nc2n[nH]c3nnc(-c4cccc(F)c4F)cc23)CC1", -0.26),
    ("OCCCNc1nccc(-c2c(-c3ccc(F)cc3)nn3cc(C(F)(F)F)ccc23)n1", 0.98),
    ("COc1ccc2ncn(-c3cc(O[C@H](C)c4ccccc4C(F)(F)F)c(C(N)=O)s3)c2c1", 3.92),
    ("FC(F)(F)CNc1nccc(-c2cnn3ncccc23)n1", 0.91),
    ("COc1cc2c(cc1Nc1nc(Nc3cccc(F)c3C(N)=O)c3cc[nH]c3n1)N(C(=O)CN1CCN(C(C)C)CC1)CC2", -0.5),
    ("COc1ccc(-c2nn3ncccc3c2-c2ccnc(Nc3ccc(F)c(F)c3)n2)cc1", 11.5),
    ("CCS(=O)(=O)c1ccc(OC)c(Nc2ncc(-c3cccc(C(C)=O)c3)o2)c1", 10.7),
    ("CCCNc1cccc(-n2ncc3c(N/N=C/c4ccncc4)ncnc32)c1", 5.45),
    ("CCOc1ccc2c(-c3ccnc(Nc4cc(OC)cc(C(F)(F)F)c4)n3)cnn2n1", 14.5),
    ("CC1=C(C(=O)Nc2ccc3[nH]ncc3c2)C(c2ccc(F)cc2)N=C(c2ccc(C(F)(F)F)nc2)N1 (stereo not drawn)", 1.33),
    ("COc1ccccc1-c1cc(/C=C2\\C(=O)Nc3ncc(Br)cc32)cc(Br)c1O", 3.21),
    ("Cc1cc(O)cc(C)c1/C=C/c1cncc(C(=O)OC(C)(C)C)c1", 2.87),
    ("NC(=O)c1ccc2c(-c3ccnc(NCCCO)n3)c(-c3ccc(F)cc3)nn2c1", 2.71),
    ("Cn1c(-c2nonc2N)nc2cnccc21", 2.49),
    ("Fc1cccc(COc2ccc(Nc3ncncc3C#Cc3ccccc3)cc2Cl)c1", 6.38),
    ("c1ccc(-c2n[nH]cc2-c2ccnc(-c3ccc(OCCn4ccnc4)cc3)c2)nc1", 3.3),
    ("N#Cc1ccc2c(-c3ccnc(NC4CC4)n3)c(-c3ccc(F)cc3)nn2c1", 0.73),
    ("NS(=O)(=O)c1ccc(N/N=C2\\C(=O)Nc3cccc(CCc4ccncc4)c32)cc1", 15),
    ("c1cnn2ncc(-c3ccnc(NCCCN4CCOCC4)n3)c2c1", 3.97),
    ("N#Cc1cccc(Nc2ncc(-c3ccccc3)o2)c1", 35.8),
    ("CNC(=O)c1sc(-n2cnc3cc(OC)c(OC)cc32)cc1OCc1ccccc1C(F)(F)F", 1.95),
    ("CN(C)CCNC(=O)Nc1ccc(N(C)c2ccnc(Nc3ccc(CS(C)(=O)=O)cc3)n2)cc1", 6.89),
    ("O=C(O[C@H]1CN[C@H](C#Cc2cc3ncnc(Nc4ccc5c(ccn5Cc5cc(F)ccc5F)c4)c3s2)C1)N1CCOCC1", 2.88),
    ("COc1cc(N2CCN(C(C)C)CC2)ccc1Nc1nc(Nc2cccc3ncccc23)c2cc[nH]c2n1", 0.54),
    ("Cc1cc(O)cc(C)c1/C=C/c1cncc(C(N)=O)c1", 1.74),
    ("CS(=O)(=O)CCNCc1ccc(-c2ccc3ncnc(Nc4ccc(OCc5cccc(C(F)(F)F)c5)cc4)c3c2)o1", 5.44),
    ("COc1cc(N2CCN(C(C)C)CC2)ccc1Nc1nc(Nc2cccc(F)c2C(=O)O)c2cc[nH]c2n1", 3.08),
    ("Cc1nnc(-c2cccc(-c3ccc(C(=O)NCC4CC4)cc3)c2)o1", 5.66),
    ("CN1CCC(n2cnc(-c3ccc(F)cc3)c2-c2ccnc(NCCO)n2)CC1", 6.22),
    ("COC(=O)Nc1nc2ccc(Oc3ccc(NC(=O)Nc4cc(C(F)(F)F)ccc4F)cc3)cc2s1", 46.7),
]
